These data points were gathered from PubChem BioAssay.

Molecular target: Torsin-1A (Homo sapiens)
Experiment: small-molecule binders of mutant TOR1A in lysate, primary screen, cell lysate, small-molecule microarray, COS7 lysate, 635/667 nm fluorescence (AID 1150);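 note: score pools 667 nm emission and signal to noise measuring lysate protein binding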
Details: COS7 hTOR1A mutant lysate, 635 nm fluorescence, higher = more signal
For each entry below, report its composite z-score value.
Give bare numbers.

For every record below, what is its composite z-score?
1. COc1ccc(NN2C(C(O)c3ccccn3)C=CC3C(=O)N(C4CCCCC4)C(=O)C32)cc1 (stereo not drawn)
2. [N-]=[N+]=Nc1ccccc1C[C@]1(C(=O)NCc2ccccc2)N=C(c2ccc(OCCCO)cc2)O[C@H]1c1ccccc1
3. C=C(/C=C/CNS(=O)(=O)c1ccc(C)cc1)[C@H](O)[C@H]1CCCN1S(=O)(=O)c1ccccc1[N+](=O)[O-]
4. C[C@@H](OCc1ccccc1)C1NC(=O)[C@@]23C(=O)N[C@@H](Cc4ccccc4)C2[C@H](C)[C@@]2(C)O[C@H]2C3/C=C/C/C=C\CNC(=O)CNC1=O (stereo partly drawn)
5. COCCOC(=O)N1C(=O)[C@@]2(c3cc(C#CC4(O)CCCCCC4)ccc31)[C@H](C(=O)N1CCCCCCC1)[C@H]1C(=O)O[C@H](c3ccccc3)[C@H](c3ccccc3)N1[C@@H]2c1ccc(OCCO)cc1
6. C=C(C(=O)CC[C@H](OC(C)=O)c1cccc(OCCO)c1)C(C)C
7. COCCOC(=O)N1C(=O)[C@@]2(c3cc(C#CC4(O)CCCCCC4)ccc31)[C@H](C(N)=O)[C@H]1C(=O)O[C@H](c3ccccc3)[C@H](c3ccccc3)N1[C@@H]2c1ccccc1OCCO

result:
1. 0.542
2. 0.687
3. 0.388
4. -0.104
5. 1.8
6. -0.241
7. 0.445

For every record below, what is its composite z-score?
1. CC(C)c1ccc(NN2C(C(O)c3ccco3)C=CC3C(=O)N(c4ccccc4)C(=O)C32)cc1 (stereo not drawn)
2. COCCCNC(=O)[C@]1(Cc2ccccc2N=[N+]=[N-])N=C(c2ccc(OCCCO)cc2)O[C@@H]1c1ccccc1N=[N+]=[N-]
3. COc1cc2c(cc1OC)CN(C(=O)[C@H]1[C@@H]3C(=O)O[C@@H](c4ccccc4)[C@@H](c4ccccc4)N3[C@@H](c3ccc(OCCO)cc3)[C@]13C(=O)Nc1ccc(C#CC4(O)CCCCCC4)cc13)CC2
4. COc1ccc(C(O)C2C=CC3C(=O)N(c4ccccc4)C(=O)C3N2Nc2ccc(C#N)cc2)c2ccccc12 (stereo not drawn)
5. COCCOC(=O)N1C(=O)[C@@]2(c3cc(C#Cc4ccc(OC)cc4)ccc31)[C@H](C(=O)N1CCN(c3ncccn3)CC1)[C@H]1C(=O)O[C@H](c3ccccc3)[C@H](c3ccccc3)N1[C@@H]2c1ccccc1OCCO
6. [N-]=[N+]=NCc1ccccc1C[C@@]1(C(N)=O)N=C(c2ccc(OCCCO)cc2)O[C@@H]1c1ccccc1CN=[N+]=[N-]

result:
[0.445, 0.605, 1.85, 0.917, 0.0863, 0.335]

====

Experiment: basal S. cerevisiae growth modulation, no modifier, primary screen, OD600, strain BY4716, 24 h, basal condition (AID 1173)
Settings: OD600, 24 h, higher = more signal, called active from +8 up or from −8 down
For each entry below, report its z-score value.
Numbers only.

Solved entries (count: 5):
{"COMPOUND": "COCCCNC(=O)[C@@H]1c2ccccc2C(=O)N(Cc2ccccc2C(F)(F)F)[C@H]1c1ccc(CO)cc1", "MEASURED ATTRIBUTE": "z-score", "READOUT VALUE": -0.756}
{"COMPOUND": "CC(C)CNC(=O)[C@@]1(c2ccc([N+](=O)[O-])cc2)CC(=O)N(C2CCCCC2)[C@@H]1c1ccc(CO)cc1I", "MEASURED ATTRIBUTE": "z-score", "READOUT VALUE": -0.871}
{"COMPOUND": "O=C1C[C@@](C(=O)NCC(F)(F)F)(c2ccc([N+](=O)[O-])cc2)[C@@H](c2ccc(CO)cc2)N1C1CCCCC1", "MEASURED ATTRIBUTE": "z-score", "READOUT VALUE": -0.693}
{"COMPOUND": "CCCC[C@@H]1C[C@H]1[C@@H](NC(=O)c1ccccc1)c1ccc(Cl)cc1", "MEASURED ATTRIBUTE": "z-score", "READOUT VALUE": 0.127}
{"COMPOUND": "COc1ccc(C(O)C2C=CC3C(=O)N(c4ccccc4)C(=O)C3N2Nc2ccccc2)cc1OCc1ccccc1 (configuration not stated)", "MEASURED ATTRIBUTE": "z-score", "READOUT VALUE": -2.82}

For every record below, what is its z-score?
1. CCOC(=O)C[C@H]1[C@H](OC(=O)c2ccccc2-c2ccccc2)[C@@H](NC(=O)c2ccc3ccccc3n2)c2cc(OCCCO)ccc2N1C(=O)c1ccc2ccccc2n1
2. O=C1OCC=C[C@H]2OC34C=CCN(c5ccc(Cl)cc5)C(=O)[C@H]3N(CCCCCO)C(=O)[C@@H]4[C@@H]12 (some centres not stated)

result:
-1.08
-1.1
